These entries and their values trace back to ChEMBL document CHEMBL3992530.

Molecular target: Free fatty acid receptor 4 (Homo sapiens)
Sequence (Q5NUL3 whole entry): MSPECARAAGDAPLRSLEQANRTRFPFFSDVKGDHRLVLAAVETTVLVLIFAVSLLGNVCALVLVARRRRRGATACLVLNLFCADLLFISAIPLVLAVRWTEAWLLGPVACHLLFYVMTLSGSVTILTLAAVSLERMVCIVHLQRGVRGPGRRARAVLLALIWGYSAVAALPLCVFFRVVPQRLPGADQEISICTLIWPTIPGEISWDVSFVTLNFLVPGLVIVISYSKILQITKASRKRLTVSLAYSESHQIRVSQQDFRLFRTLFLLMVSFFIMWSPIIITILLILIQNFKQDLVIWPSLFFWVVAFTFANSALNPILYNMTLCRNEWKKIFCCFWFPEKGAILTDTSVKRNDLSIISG
Assay: Agonist activity at human GPR120 expressed in CHO cells assessed as increase in intracellular calcium flux by Fluo-8 dye based FLIPR assay
measuredEndpoint: EC50

GET /values?readout=EC50&item= Cc1cccc(OCCC2CCOC3(CCN(Cc4ccc(COc5ccc(CCC(=O)O)cc5)cc4)CC3)C2)n1.Cl.Cl (stereo unspecified)
> 10 µM

###

Assignment: determine reported %max for the given compounds.
Biological target: Free fatty acid receptor 1 (Homo sapiens, UniProt O14842)
Sequence (O14842 whole entry): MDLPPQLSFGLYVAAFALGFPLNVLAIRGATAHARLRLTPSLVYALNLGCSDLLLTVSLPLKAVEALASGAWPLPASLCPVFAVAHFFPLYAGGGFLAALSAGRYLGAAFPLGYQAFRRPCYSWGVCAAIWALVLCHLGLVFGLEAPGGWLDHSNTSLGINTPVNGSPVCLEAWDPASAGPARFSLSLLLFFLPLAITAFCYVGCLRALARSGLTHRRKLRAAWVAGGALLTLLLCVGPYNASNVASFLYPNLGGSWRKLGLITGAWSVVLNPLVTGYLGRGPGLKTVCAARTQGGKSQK
Assay: Agonist activity at human GPR40 expressed in CHO cells assessed as increase in intracellular calcium flux at 5 uM by Fluo-8 dye based FLIPR assay relative to GW9508
Assay type: functional, cell-based
The figure you give is taken to be in %; do not add the unit.

Quick one: %max for Cc1cnc(C)c(OCCC2CCOC3(CCN(Cc4ccc(COc5ccc(CCC(=O)O)cc5)cc4)CC3)C2)n1 (centres undefined) ?
80.2

Recorded %max for O=C(O)CCc1ccc(OCc2ccc(CN3CCC4(CC3)CC(CCOc3ccncc3)CCO4)cc2)cc1 (centres undefined) , please?
48.5

I would be grateful if you could share the reported %max for O=C(O)CCc1ccc(OCc2ccc(CN3CCC4(CC3)CC(CCOc3ncnc5c3CCC5)CCO4)cc2)cc1 (centres undefined) .
78.4

Record request: %max value, item Cc1ccnc(OCCC2CCOC3(CCN(Cc4ccc(COc5ccc(CCC(=O)O)cc5)cc4)CC3)C2)c1 (centres undefined)
110
